# System: Lactobacillus crispatus 262-1
# PROCEDURE_DETAILS: Antibiotic sensitivity test, agar-diffusion paper-disc method
# Assay type: cell-based
# STUDY_CONDITIONS: T0 generation; three levels: sensitivity, mediation, drug resistance; criteria of reference bacteria

| MOLECULE | Sensitivity determination |
| --- | --- |
| CC[C@H]1OC(=O)[C@H](C)[C@@H](O[C@H]2C[C@@](C)(OC)[C@@H](O)[C@H](C)O2)[C@H](C)[C@@H](O[C@@H]2O[C@H](C)C[C@H](N(C)C)[C@H]2O)[C@](C)(O)C[C@@H](C)C(=O)[C@H](C)[C@@H](O)[C@]1(C)O [Erythromycin] | Sensitivity |
| CC1(C)S[C@@H]2[C@H](NC(=O)[C@H](N)c3ccc(O)cc3)C(=O)N2[C@H]1C(=O)O [Amoxicillin] | Sensitivity |
